# tgt: Torsin-1A-interacting protein 2 (Homo sapiens)
# test.method.notes: LULL1 binders on small-molecule microarray, primary screen, cell lysate, human LULL1 lysate, 635/667 nm fluorescence (AID 1092);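 note: probe is lysate of COS7 cells overexpressing human LULL1; score merges per-feature 667 nm fluorescence with signal-to-noise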
# run.parameters: hLULL1 lysate binding, 635 nm fluorescence, higher = more signal
Let's look at some compounds and their measured composite z-score.
attribute.measured: composite z-score

[[record]]
compound = "CC(C)N1CC=CC23O[C@@H]4C=CCCOC(=O)C4[C@H]2C(=O)N(CCCCCO)[C@@H]3C1=O (some centres undefined)"
tgt = "Torsin-1A-interacting protein 2 (Homo sapiens)"
measured_number = 0.988

[[record]]
compound = "C=CCC(OC(C)=O)[C@@H]1[C@@H](N(Cc2cc3ccccc3o2)C(=O)Cc2ccc(OC)cc2)c2cc(OCCCO)ccc2N1C(=O)Cc1ccc2ccccc2c1 (some centres undefined)"
tgt = "Torsin-1A-interacting protein 2 (Homo sapiens)"
measured_number = 0.783

[[record]]
compound = "CCC[C@@H]1C=C(C(=O)OCC)[C@H](c2ccccc2)N1S(=O)(=O)c1ccc(C)cc1"
tgt = "Torsin-1A-interacting protein 2 (Homo sapiens)"
measured_number = 0.352

[[record]]
compound = "C[C@]1(C(=O)NCC(F)(F)F)c2ccccc2C(=O)N(Cc2ccc(OC(F)(F)F)cc2)[C@H]1c1ccc(CO)cc1"
tgt = "Torsin-1A-interacting protein 2 (Homo sapiens)"
measured_number = 1.03

[[record]]
compound = "COCCOC(=O)N1C(=O)[C@@]2(c3cc(C#CCNC(N)=O)ccc31)[C@H](C(=O)NC[C@H](O)c1ccccc1)[C@H]1C(=O)O[C@H](c3ccccc3)[C@H](c3ccccc3)N1[C@@H]2c1ccc(OCCO)cc1"
tgt = "Torsin-1A-interacting protein 2 (Homo sapiens)"
measured_number = 2.5

[[record]]
compound = "CN1C=C(C(=O)OCCS(C)(=O)=O)C(C(=O)OCCS(C)(=O)=O)=CC(CCCO)=CC1c1ccc(CN2CCCC2)cc1 (centres undefined)"
tgt = "Torsin-1A-interacting protein 2 (Homo sapiens)"
measured_number = 3.06

[[record]]
compound = "CCCCCCCCCCC(O)C1C=CC2C(=O)N(C)C(=O)C2N1N1CCCCC1 (centres undefined)"
tgt = "Torsin-1A-interacting protein 2 (Homo sapiens)"
measured_number = 1.64

[[record]]
compound = "CC(C)(C)OC(=O)CC[C@]1(C(=O)N2CCOCC2)N=C(c2ccc(OCCCO)cc2)O[C@H]1c1ccccc1CN=[N+]=[N-]"
tgt = "Torsin-1A-interacting protein 2 (Homo sapiens)"
measured_number = 3.32

[[record]]
compound = "C=CCNC(=O)[C@H]1[C@@H]2C(=O)O[C@@H](c3ccccc3)[C@@H](c3ccccc3)N2[C@@H](c2ccc(O)cc2)[C@]12C(=O)Nc1ccc(C#CC3=CCCCC3)cc12"
tgt = "Torsin-1A-interacting protein 2 (Homo sapiens)"
measured_number = 1.54

[[record]]
compound = "CCCCN1CC=CC23O[C@@H]4/C=C\\CCC(C)OC(=O)C4[C@H]2C(=O)N(C(C)CO)[C@@H]3C1=O (some centres undefined)"
tgt = "Torsin-1A-interacting protein 2 (Homo sapiens)"
measured_number = -1.13

[[record]]
compound = "Cc1c(-c2ccc(-c3ccc(Cl)c(Cl)c3)o2)nc(-c2ccccc2)c2c1CO[Si]2(C(C)C)C(C)C"
tgt = "Torsin-1A-interacting protein 2 (Homo sapiens)"
measured_number = 0.867

[[record]]
compound = "CC(C)C(=C=CC[C@@H](O)c1ccc(OCCO)cc1)CCO"
tgt = "Torsin-1A-interacting protein 2 (Homo sapiens)"
measured_number = -0.0081

[[record]]
compound = "CCOC(=O)C[C@H]1[C@H](OC(=O)c2ccc(-c3ccccc3)cc2)[C@@H](NC(=O)c2ccc3ccccc3c2)c2cc(OCCCO)ccc2N1C(=O)c1ccccc1"
tgt = "Torsin-1A-interacting protein 2 (Homo sapiens)"
measured_number = 1.69

[[record]]
compound = "O=C1N(Cc2ccccc2)c2ccccc2[C@H]2OC(c3ccc(OCCCO)cc3)=N[C@@]12Cc1ccccc1"
tgt = "Torsin-1A-interacting protein 2 (Homo sapiens)"
measured_number = 2.58

[[record]]
compound = "C/C=C/CN(C(=O)C#Cc1ccccc1)[C@H](CO[Si](C)(C)C(C)(C)C)c1ccccc1"
tgt = "Torsin-1A-interacting protein 2 (Homo sapiens)"
measured_number = 0.571

[[record]]
compound = "CCCC[C@H]1OB(O)C[C@H]2C1=C(C)C[C@H]1C(=O)C=CC(=O)[C@H]12"
tgt = "Torsin-1A-interacting protein 2 (Homo sapiens)"
measured_number = 1.01

[[record]]
compound = "C=CCN1C(=O)[C@]2(O[C@H](CCO)[C@@H]([Si](C)(C)c3ccc(OC)cc3)[C@@H]2C)c2ccccc21"
tgt = "Torsin-1A-interacting protein 2 (Homo sapiens)"
measured_number = 0.602

[[record]]
compound = "COc1ccc([Si](C)(C)[C@H]2[C@H](CC(=O)N3Cc4ccccc4C[C@H]3CO)O[C@@]3(C(=O)N(Cc4cccc(N5C(=O)c6cccc7cccc5c67)c4)c4ccccc43)[C@@H]2C)cc1"
tgt = "Torsin-1A-interacting protein 2 (Homo sapiens)"
measured_number = 2.14

[[record]]
compound = "Cc1ccc(S[C@]2(C(=O)NCC(F)(F)F)CC(=O)N(C3CCCCC3)[C@@H]2c2ccc(CO)cc2)cc1"
tgt = "Torsin-1A-interacting protein 2 (Homo sapiens)"
measured_number = 2.9

[[record]]
compound = "NCCCC[C@@H]1NC(=O)[C@H]2C[C@@H](C(=O)O)[C@@H](c3cccc(OCCO)c3)N2C1=O"
tgt = "Torsin-1A-interacting protein 2 (Homo sapiens)"
measured_number = 3.33

[[record]]
compound = "COCCOC(=O)N1C(=O)[C@@]2(c3cc(C#CC4(O)CCCCCC4)ccc31)[C@H](c1ccccc1OCCO)N1[C@H](c3ccccc3)[C@H](c3ccccc3)OC(=O)[C@H]1[C@@H]2C(=O)N1CCCCCCC1"
tgt = "Torsin-1A-interacting protein 2 (Homo sapiens)"
measured_number = 3.47

[[record]]
compound = "[N-]=[N+]=NCc1ccccc1C[C@]1(C(=O)NCc2ccccc2)N=C(c2ccc(OCCCO)cc2)O[C@H]1c1ccccc1CN=[N+]=[N-]"
tgt = "Torsin-1A-interacting protein 2 (Homo sapiens)"
measured_number = 3.25

[[record]]
compound = "CN1C(=O)[C@]2(CCC(=O)OC(C)(C)C)N=C(c3ccc(OCCCO)cc3)O[C@@H]2c2ccccc21"
tgt = "Torsin-1A-interacting protein 2 (Homo sapiens)"
measured_number = 3.06

[[record]]
compound = "C=CCC(OC(C)=O)[C@@H]1[C@@H](N(Cc2cc3ccccc3o2)C(=O)c2cccc3ccccc23)c2cc(OCCCO)ccc2N1C(=O)c1ccc2ccccc2c1 (some centres undefined)"
tgt = "Torsin-1A-interacting protein 2 (Homo sapiens)"
measured_number = 0.583

[[record]]
compound = "CN(C)CCCC[C@@H]1NC(=O)[C@H]2C[C@@H](C(=O)O)[C@@H](c3cccc(OCCO)c3)N2C1=O"
tgt = "Torsin-1A-interacting protein 2 (Homo sapiens)"
measured_number = 2.1

[[record]]
compound = "CCN(CC)c1ccc(N2CC=CC34O[C@@H]5C=CCOC(=O)[C@@H]5[C@H]3C(=O)N(CCCO)[C@@H]4C2=O)cc1 (some centres undefined)"
tgt = "Torsin-1A-interacting protein 2 (Homo sapiens)"
measured_number = 1.57

[[record]]
compound = "COCCOC(=O)N1C(=O)[C@@]2(c3cc(C#CCCO)ccc31)[C@H](C(=O)N1CCc3cc(OC)c(OC)cc3C1)[C@H]1C(=O)O[C@H](c3ccccc3)[C@H](c3ccccc3)N1[C@@H]2c1ccccc1OCCO"
tgt = "Torsin-1A-interacting protein 2 (Homo sapiens)"
measured_number = 2.81

[[record]]
compound = "COC(=O)[C@@]1(Cc2ccc(OC)cc2)[C@@H]2[C@@H](CC(=O)[C@H]2CC(=O)C(=O)N2CCCC2)CN1C(=O)c1ccccc1"
tgt = "Torsin-1A-interacting protein 2 (Homo sapiens)"
measured_number = 2.6

[[record]]
compound = "COc1cc(OC)c(C(O)C2C=CC3C(=O)N(c4ccccc4)C(=O)C3N2Nc2ccccc2F)cc1Br (centres undefined)"
tgt = "Torsin-1A-interacting protein 2 (Homo sapiens)"
measured_number = 3.44


----------
# test.method.notes: compound binding in COS7 lysate, probe aLAP1, primary screen, cell lysate, small-molecule microarray (AID 1124);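 note: lysate comes from COS7 cells expressing LAP1 and is applied at 0.3 µg/mL; score merges spot fluorescence near 667 nm with signal-to-noise over triplicate slides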
# run.parameters: probe aLAP1, fluorescence, higher = more signal
attribute.measured: composite z-score

[[record]]
compound = "CC(=O)c1ccc(C(O)C2C=CC3C(=O)NC(=O)C3N2Nc2ccc(Cl)cc2Cl)cc1 (centres undefined)"
attribute_measured = "composite z-score"
measured_number = -0.227

[[record]]
compound = "COc1ccc([Si](C)(C)[C@H]2[C@H](CCn3cc([C@H](O)c4ccccc4)nn3)O[C@@]3(C(=O)N(C)c4c(Br)cc(C)cc43)[C@@H]2C)cc1"
attribute_measured = "composite z-score"
measured_number = -0.112

[[record]]
compound = "C=C(CCCC)C(=O)CC[C@H](OC(=O)c1cccnc1)c1ccc(CO)o1"
attribute_measured = "composite z-score"
measured_number = 1.06

[[record]]
compound = "COc1ccc([Si](C)(C)[C@@H]2[C@@H](CC(=O)N(CCO)Cc3ccccc3)O[C@]3(C(=O)N(Cc4ccc(N5CCC5=O)cc4)c4ccccc43)[C@H]2C)cc1"
attribute_measured = "composite z-score"
measured_number = -0.161

